# procedureText: Inhibition of Drosophila Kinesin-1 assessed as reduction in microtubule-stimulated ATPase activity preincubated for 15 mins followed by microtubule addition in the presence of ATP after 6 mins by malachite green method
valueType: IC50

[[record]]
compound = "CC(C)(O)[C@@H]1CC(=O)[C@]2(C)[C@H](CC[C@@]3(C)[C@H]2CC[C@H]2Cc4c([nH]c5ccccc45)[C@@]23C)O1"
observedresult = "> 100 µM"


Shift focus to the following entry.
Query block: Given the compound CC(C)(O)[C@@H]1C[C@@H](O)[C@]2(C)[C@H](CC[C@@]3(C)[C@H]2CC[C@H]2Cc4c([nH]c5ccccc45)[C@@]23C)O1 [TERPENDOLE E] , what is its reported IC50?
Result block: > 100 µM

---

# procedureText: Cytotoxicity against human HeLa cells assessed as reduction in cell viability after 48 hrs by SF-based cell counting method
# Assay type: functional
Items are presented alongside their recorded IC50.
# value in µM; strip the unit string

[[record]]
compound = "CC(C)(O)[C@@H]1C[C@@H](O)[C@]2(C)[C@H](CC[C@@]3(C)[C@H]2CC[C@H]2Cc4c([nH]c5ccccc45)[C@@]23C)O1 [TERPENDOLE E]"
valuetype = "IC50"
observedresult = 12.1


Shift focus to the following entry.
Query block: Given the compound "CC(C)(O)[C@@H]1CC(=O)[C@]2(C)[C@H](CC[C@@]3(C)[C@H]2CC[C@H]2Cc4c([nH]c5ccccc45)[C@@]23C)O1" , what is its reported IC50?
Result block: 2.9

The values you see were collected from ChEMBL document CHEMBL3875184.
